Measured platinum levels in blood plasma, listed per entry for reference.
Test: Organ distribution of platinum in SKOV3-bearing SCID mice
Details: 24 h after single iv dose equimolar to 9 mg/kg oxaliplatin
Entry rule: numbers only, all in mg/kg.

Study these solved cases before continuing.
molecule: Cn1cc(C[C@@H](NC(=O)[O][Pt]2([O]C(=O)NCCCCCN3C(=O)C=CC3=O)[O]C(=O)C(=O)[O]2)C(=O)O)c2ccccc21.N[C@@H]1CCCC[C@H]1N
platinum levels in blood plasma (mg/kg): 6.4

molecule: Cn1cc(C[C@@H]([NH3+])C(=O)[O][Pt]2([O]C(=O)NCCCCCN3C(=O)C=CC3=O)[O]C(=O)C(=O)[O]2)c2ccccc21.N[C@@H]1CCCC[C@H]1N.O=C([O-])C(F)(F)F
platinum levels in blood plasma (mg/kg): 1.9

molecule: Cn1cc(C[C@@H](NC(=O)[O][Pt]2([O]C(=O)CCCCCN3C(=O)C=CC3=O)[O]C(=O)C(=O)[O]2)C(=O)O)c2ccccc21.N[C@@H]1CCCC[C@H]1N
platinum levels in blood plasma (mg/kg): 5.9

The record that follows has no platinum levels in blood plasma shown yet.
Sample Cn1cc(CC([NH3+])C(=O)[O][Pt]23([O]C(=O)CCCCCN4C(=O)C=CC4=O)([NH]C4CCCCC4[NH]2)[O]C(=O)C(=O)[O]3)c2ccccc21.O=C([O-])C(F)(F)F (stereo not shown) — what was its platinum levels in blood plasma?
3.7

// provenance: paper PMC8404199
